# melting point values compiled below

Answered examples (5):
1. COC(=O)c1ccccc1S(=O)(=O)NCC(=O)N[C@@H](Cc1ccccc1)C(=O)O
140 to 143 °C
2. CCOCc1cc2ccc(OCc3ccccc3)cc2o/c1=N\c1ccccc1
94 to 95 °C
3. O=C(O)CCc1oc(-n2ccnc2-c2ccccc2)nc1-c1ccc(Cl)cc1
179 to 180 °C
4. CCOC(=O)C1CN(C(=O)c2cc(OC)c(OC)c(OC)c2)CCN1C(=O)C1=Cc2cc(OC)c(OC)cc2CCC1 (centres undefined)
108 to 110 °C
5. COc1cc(C(C)=O)cc(OC)c1OCCCC(=O)O
122 to 124 °C

Query: State its melting point: CCOC(=O)c1c(-c2ccc(OC)cc2)c2oc3ccc(-c4ccccc4)cc3c2n(Cc2cc(OC)ccc2OC)c1=O
Reply: 216 °C

Query: State its melting point: CC(=O)N[C@@H](C)COc1cc2oc(-c3ccc(OC[C@H]4CC4(F)F)cc3)nc2cn1
Reply: 205 °C

Query: State its melting point: Cc1ncc(C(=O)N2CCC(=O)CC2)c(C)n1
Reply: 116 °C

Query: State its melting point: Cc1cnc2c(NC(=O)c3ccccc3C(F)(F)F)cccc2c1N1CCN(C)C1=O
Reply: 182 to 191 °C

###

# melting point values compiled below

Answered examples (7):
1) Cc1c(S(C)(=O)=O)c2cccc(Cl)c2n1CC1=NCCN1
206 to 208 °C
2) CC(C)(C)OC(=O)NCCCC(COC(=O)Oc1ccc([N+](=O)[O-])cc1)NC(=O)OCC1c2ccccc2-c2ccccc21 (stereo not drawn)
140 to 142 °C
3) COC(=O)c1cc(C(=O)c2ncc3ccccn23)ccc1[N+](=O)[O-]
151 °C
4) CCOC(=O)N1CCn2c(nc(-c3ccncc3)cc2=O)C(NC(=O)c2ccc3c(c2)CNCC3)C1 (racemic)
258 to 260 °C
5) c1cc(N2CCCC2)ncc1C12CCN(CC1)C2
119 to 121 °C
6) COc1cc(C(=O)N2CCC(CCN3CCC(C(=O)c4nc5ccccc5[nH]4)CC3)(c3ccc(Cl)c(Cl)c3)C2)cc(OC)c1OC (stereo not drawn)
130 to 140 °C
7) CCCCOC(=O)C(O)C1OC(n2cnc3c(N)ncnc32)C(O)C1O (stereo not drawn)
167 °C

Now examine the next entry.
Query: State its melting point: COc1ccc(C=CC(=O)c2c(OC)cc(OC)cc2OC(=O)c2ccco2)cc1
Reply: 127 °C

###

READOUT_KIND: melting point

1. OCC(CO)CCOc1ccccc1
71 to 73 °C

Query: State its melting point: CN(C)S(=O)(=O)c1ccc(-c2ccccc2)cc1S(=O)(=O)Cl
Reply: 140 to 143 °C

###

# melting point values compiled below

1) CCOC(=O)C1=C(C)NC(C)=C(C(=O)OCC)C1c1ccccc1[N+](=O)[O-]
120 to 121 °C
2) COCC(=O)N(c1c(C)ccc(Cl)c1C)C1CCOC1=O (centres undefined)
80 to 82 °C
3) COc1ccc(C2=NN(c3ccccc3)C(c3ccc(NC(=S)Nc4ccccc4)cc3)C2)cc1 (centres undefined)
153 to 156 °C
4) NS(=O)(=O)c1cc(C(=O)OCC(=O)N[C@@H](CCO[N+](=O)[O-])CO[N+](=O)[O-])c(NCc2ccco2)cc1Cl
93 to 95 °C
5) CCn1c(Nc2ccc(C)cc2)nnc1[C@@H](C)NS(=O)(=O)c1ccc(Cl)c(Cl)c1
93 to 99 °C

Query: State its melting point: Cc1nc(N2CCCN(CC3CC3)C2=O)sc1C(=O)NCc1cccnc1
Reply: 142 to 145 °C

Query: State its melting point: COc1ccc(CCOc2ccc(NC(=O)c3cc(F)cc(N4CCOCC4)c3)c3ccccc23)cc1OC
Reply: 73 to 75 °C

Query: State its melting point: Cc1cc(C)nc(Sc2ccnc3cc(Cl)cc(Cl)c23)n1
Reply: 182 to 183 °C

###

# melting point values compiled below

1) CCC(C)(C)C(=O)Oc1cccc2ccc(OCCOc3ccc(C(=O)C(=O)OC)cc3)cc12
119 to 120 °C
2) CC1(C)OC(c2ccc(S(C)(=O)=O)cc2Cl)=C(c2ccccc2)C1=O
89 to 90 °C
3) CCOP(=O)(OCC)C(CCC(C(N)=O)P(=O)(OCC)OCC)C(N)=O (stereo not given)
232 to 234 °C
4) CC(C)(C(=O)O)c1nc2ccc(NCCCN3CCN(C(c4ccccc4)c4ccccc4)CC3)nn2c1Cl
184 to 186 °C

Now examine the next entry.
Query: State its melting point: Cc1ccn(-c2ccc(Oc3ccc(F)cc3)cc2)n1
Reply: 80 to 81 °C

###

READOUT_KIND: melting point

Answered examples (2):
1) Clc1ccc2cc3ccccc3cc2c1
220 to 221 °C
2) COc1ccc(/C=C2/c3cc(OC)c(OC)cc3CCN2C(=O)c2cc(OC)c(OC)c(OC)c2)cc1OC
195 to 200 °C

Query: State its melting point: Cc1nc2c(s1)-c1nc(Nc3ccc(N(C)C)cc3)ncc1CC2
Reply: 176 to 177 °C

###

READOUT_KIND: melting point (°C)

Answered examples (2):
1) CC#CCOc1cc(Oc2ccc([N+](=O)[O-])cc2F)ncn1
132
2) CC(=O)n1cc(Cl)c(-c2cc(Cl)cc(Cl)c2)n1
125

a: COCCOc1ccc(CCCNS(=O)(=O)c2ccccc2[N+](=O)[O-])c(Oc2ncc(C(F)(F)F)cc2Cl)c1
b: CC(C)(C)c1cc(CC(C)(C)C2OCCS2)cc(C(C)(C)C)c1O (stereo not given)
Query: a or b : whose melting point is greater? # answer = label of selected item
Reply: a
(a: 126 °C, b: 77 °C)

###

# melting point values compiled below

Answered examples (5):
1) COc1ccc(CNc2ncnc(Cl)c2N)cc1OC
185 to 188 °C
2) N#Cc1cccc2c1CCC2=O
122 °C
3) CC(C)Cc1ccc(CCOC(=O)c2cc(O)c3c(c2)C(=O)c2cccc(O)c2C3=O)cc1
117 to 121 °C
4) Oc1ccc2c(c1O)OCC(c1cccc(Cl)c1)C2 (stereo unspecified)
99 to 101 °C
5) Clc1nsnc1-c1cccnc1
48 to 49 °C

Query: State its melting point: CCNC[C@H]1CCc2cc(F)cc(-c3c(Cl)cccc3Cl)c2O1
Reply: > 225 °C

Query: State its melting point: CC1(C)Oc2ccsc2C(N2CCCCC2=O)C1O (stereo unspecified)
Reply: 151 to 152 °C

Query: State its melting point: Cc1ccc(C#CC#Cc2ccc(C)cc2)cc1
Reply: 182 to 183 °C

Query: State its melting point: Cc1ccccc1C(=O)Nc1ncc([N+](=O)[O-])s1
Reply: 228 to 230 °C

Query: State its melting point: O=C1CN(c2nccc(Oc3ccc(NC(=O)c4cc(F)cc(N5CCCCC5)c4)c4ccccc34)n2)CCN1
Reply: 140 to 142 °C

Query: State its melting point: CC(C)N(c1ccc(O)cc1)S(=O)(=O)c1ccc(O)cc1
Reply: 158 to 159 °C

###

READOUT_KIND: melting point

Answered examples (3):
1) C/C(=C\c1cccc2ccccc12)C(=O)O
155 °C
2) CC1(C)C2CC1C(=O)CC2=O
80 to 81 °C
3) COc1ccc(C(O)CN)cc1OCc1ccccc1 (stereo not drawn)
101 to 102 °C

Query: State its melting point: CCCCNc1c(C(=O)OCC)cnc2onc(C)c12
Reply: 60 °C

Query: State its melting point: COc1ccccc1OCC(O)CN1CCC(N2CCCNC2=O)CC1 (stereo not drawn)
Reply: 130 to 133 °C

Query: State its melting point: CC(=O)N1CCN(NC(=O)c2cccs2)CC1
Reply: 212 to 213 °C

Query: State its melting point: COc1ccc2cc(-c3cnccn3)ccc2n1
Reply: 130 to 132 °C

Query: State its melting point: Cc1cc(-c2cccc(N)n2)c(C)cc1OCCN1CCN(CCc2ccccc2)CC1
Reply: > 220 °C

###

READOUT_KIND: melting point

Answered examples (3):
1) CC(C)CC[C@H](O)[C@H](CC1CCCCC1)NC(=O)[C@@H](N)Cc1c[nH]cn1
126 to 130 °C
2) CN1C2CCC1CC(NC(=O)c1cccc3nc(-c4ccccc4)oc13)C2 (stereo unspecified)
164 to 166 °C
3) Cc1ccc(S(=O)(=O)n2cc(C=O)c3ccc(C(=O)Nc4c(Cl)cncc4Cl)cc32)cc1
245 °C

Now examine the next entry.
Query: State its melting point: CC(c1ccc(CCNC(=O)c2ccc(Br)cc2)cc1)N1CCCC1 (stereo unspecified)
Reply: 124 to 126 °C

###

READOUT_KIND: melting point

Answered examples (4):
1. CN1CCN(Cc2ccc(-c3cccc(-c4cncc(C#N)c4Nc4ccc5[nH]ccc5c4)c3)s2)CC1
120 to 123 °C
2. CCCCc1nc2cccc(C(=O)OC)c2n1Cc1ccc(-c2ccccc2-c2nnn[nH]2)cc1
153 to 155 °C
3. O=C(O)CSc1nc(Cl)cc(NCc2ccc(Cl)c(Cl)c2)n1
64 to 69 °C
4. Nc1cc(=O)[nH]c(=O)n1-c1ccccc1
> 280 °C

Query: State its melting point: COc1ccc(CCNCC(O)c2cc(OCc3ccccc3)cc(OCc3ccccc3)c2)cc1OC (stereo not given)
Reply: 85 to 86 °C

All values here come from a melting point compilation (Tetko et al.; mined from patent text by program, amines drawn as free bases though some values may be those of a salt).
